Every entry's value here was drawn from patent US4016280A.

Tested on: albino mouse
ASSAY_PROCEDURE: Antagonism in the albino mouse of tremorine tremor
Format: in vivo
CONDITION_SET: tremorine 15 mg/kg i.p.; drug per os; Examples 28, 29: 50 to 300 mg/kg
Description: Antagonism in the albino mouse of tion dation p.o.) i.p.) *drugs administered per os **administered in doses from 50 to 300 mg/kg
Assign Tremorine tremor antagonism ED50 to each entry below.

Q: Can you look up the measured Tremorine tremor antagonism ED50 of c1ccc(CCN2CCC(c3ccccc3)(c3ccccc3)CC2)cc1 for me?
Ans: .phi. (no effect)

Q: Can you look up the measured Tremorine tremor antagonism ED50 of CC(=O)CCN1CCC(c2ccccc2)(c2ccccc2)CC1 for me?
Ans: 15 mg/kg

Q: Can you look up the measured Tremorine tremor antagonism ED50 of O=C(CCCN1CCC(c2ccccc2)(c2ccccc2)CC1)c1ccc(F)cc1 for me?
Ans: .phi. (no effect)

Q: Can you look up the measured Tremorine tremor antagonism ED50 of O=C(CCCN1CCC(c2ccccc2)(c2ccccc2)CC1)c1ccccc1 for me?
Ans: .phi. (no effect)

###

ASSAY_PROCEDURE: Acute toxicity in the albino mouse
CONDITION_SET: mouse, in vivo, iv; Table 2; i.v.; read-out: Acute toxicity in the albino mouse LD50 i.v.
Assign LD50 to each entry below.
Write down the numeric answer in mg/kg and omit the unit.

Q: Can you look up the measured LD50 of COCCCN1CCC(c2ccccc2)(c2ccccc2)CC1 for me?
Ans: 30

Q: Can you look up the measured LD50 of CC(=O)CN1CCC(c2ccccc2)(c2ccccc2)CC1 for me?
Ans: 34

Q: Can you look up the measured LD50 of c1ccc(C2(c3ccccc3)CCNCC2)cc1 for me?
Ans: 25

Q: Can you look up the measured LD50 of c1ccc(CCN2CCC(c3ccccc3)(c3ccccc3)CC2)cc1 for me?
Ans: 19

Q: Can you look up the measured LD50 of CN1CCC(c2ccccc2)(c2ccccc2)CC1 for me?
Ans: 45

Q: Can you look up the measured LD50 of CCC(C)N1CCC(c2ccccc2)(c2ccccc2)CC1 (centres unmarked) for me?
Ans: 19

Q: Can you look up the measured LD50 of CCN1CCC(c2ccccc2)(c2ccccc2)CC1 for me?
Ans: 45

Q: Can you look up the measured LD50 of OCCN1CCC(c2ccccc2)(c2ccccc2)CC1 for me?
Ans: 33

Q: Can you look up the measured LD50 of c1ccc(CN2CCC(c3ccccc3)(c3ccccc3)CC2)cc1 for me?
Ans: 20

Q: Can you look up the measured LD50 of OCCCN1CCC(c2ccccc2)(c2ccccc2)CC1 for me?
Ans: 32

Q: Can you look up the measured LD50 of CC(C)N1CCC(c2ccccc2)(c2ccccc2)CC1 for me?
Ans: 20

###

ASSAY_PROCEDURE: Acute toxicity in the albino mouse
CONDITION_SET: mouse, in vivo, po; Table 2; p.o.; read-out: Acute toxicity in the albino mouse LD50 p.o.
READOUT: LD50 (mg/kg)
Write down the numeric answer in mg/kg and omit the unit.

Q: Can you look up the measured LD50 of CN1CCC(c2ccccc2)(c2ccccc2)CC1 for me?
Ans: 140

Q: Can you look up the measured LD50 of CCN1CCC(c2ccccc2)(c2ccccc2)CC1 for me?
Ans: 150

Q: Can you look up the measured LD50 of O=C(CCCN1CCC(c2ccccc2)(c2ccccc2)CC1)c1ccc(F)cc1 for me?
Ans: 3800

Q: Can you look up the measured LD50 of CC(C)N1CCC(c2ccccc2)(c2ccccc2)CC1 for me?
Ans: 150
